Molecular target: T1, mouse PD-1 on transfected 293F cells (mouse, UniProt Q02242 25-288)
T1 construct: whole, on cells; also called cell surface mouse PD-1
T1 sequence (looked up): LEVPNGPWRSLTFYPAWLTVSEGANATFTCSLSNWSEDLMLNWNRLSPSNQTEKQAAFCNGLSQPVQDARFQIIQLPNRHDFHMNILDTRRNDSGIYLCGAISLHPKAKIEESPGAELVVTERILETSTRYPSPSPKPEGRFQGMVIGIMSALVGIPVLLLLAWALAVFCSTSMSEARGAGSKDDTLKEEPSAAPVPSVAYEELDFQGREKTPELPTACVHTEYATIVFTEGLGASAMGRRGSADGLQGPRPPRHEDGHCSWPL
Experiment: FACS, mouse PD-1 transfected 293F cells

[
  {
    "binder": "2E5 (antibody, human IgG4, V domains shown) VH: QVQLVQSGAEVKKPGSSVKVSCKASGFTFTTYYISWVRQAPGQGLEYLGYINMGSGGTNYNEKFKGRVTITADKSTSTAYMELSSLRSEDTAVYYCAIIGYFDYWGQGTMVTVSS VL: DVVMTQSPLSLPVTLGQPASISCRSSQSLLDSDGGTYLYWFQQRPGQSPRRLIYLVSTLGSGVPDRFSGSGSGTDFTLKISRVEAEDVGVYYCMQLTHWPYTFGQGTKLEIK",
    "result.unit": "nM",
    "EC50": 12.9
  },
  {
    "binder": "1H6 (antibody, human IgG4, V domains shown) VH: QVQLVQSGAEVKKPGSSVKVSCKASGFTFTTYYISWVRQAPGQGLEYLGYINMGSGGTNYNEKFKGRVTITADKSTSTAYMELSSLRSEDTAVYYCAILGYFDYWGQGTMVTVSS VL: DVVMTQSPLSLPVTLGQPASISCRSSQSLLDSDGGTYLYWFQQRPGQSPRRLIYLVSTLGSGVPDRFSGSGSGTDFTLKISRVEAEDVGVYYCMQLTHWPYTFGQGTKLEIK",
    "result.unit": "nM",
    "EC50": 15.1
  },
  {
    "binder": "2G4 (antibody, human IgG4, V domains shown) VH: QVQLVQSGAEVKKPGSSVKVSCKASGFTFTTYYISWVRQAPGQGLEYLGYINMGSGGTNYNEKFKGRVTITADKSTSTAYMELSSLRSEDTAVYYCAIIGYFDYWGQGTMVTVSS VL: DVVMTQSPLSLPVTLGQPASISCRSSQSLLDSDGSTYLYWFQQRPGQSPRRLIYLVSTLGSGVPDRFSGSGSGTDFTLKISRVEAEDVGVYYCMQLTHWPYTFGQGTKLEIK",
    "result.unit": "nM",
    "EC50": 14.8
  },
  {
    "binder": "2C2 (antibody, human IgG4, V domains shown) VH: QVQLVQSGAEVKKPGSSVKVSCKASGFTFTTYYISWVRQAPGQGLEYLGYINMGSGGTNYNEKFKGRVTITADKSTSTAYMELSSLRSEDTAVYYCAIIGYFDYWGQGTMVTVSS VL: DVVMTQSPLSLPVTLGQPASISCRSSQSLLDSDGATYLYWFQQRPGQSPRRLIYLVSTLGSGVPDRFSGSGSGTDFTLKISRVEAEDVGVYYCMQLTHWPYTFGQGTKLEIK",
    "result.unit": "nM",
    "EC50": 11.8
  }
]
